Parameter T/C: see the listing below.
# Tested on: P388 leukemia ip, CD2F1 mice, survival T/C
# EXPERIMENT_SUMMARY: NCI In Vivo Anticancer Drug Screen. Data for tumor model P388 Leukemia (intraperitoneal) in CD2F1 (CDF1) mice
# CONDITION_LABEL: endpoint: median survival time; dose: 50.0 mg/kg/injection; schedule: Q01DX009 (ip); vehicle: saline with Tween-80; higher = longer survival
Inconclusive results and toxic doses are left out.

Answered cases to consult:
# COMPOUND, T/C
rows = [
    ("CS(=O)(=O)CC(=O)c1ccccc1", "97 % of control"),
    ("NC(=O)c1ccccc1OC(=O)NCCO", "106 % of control"),
]

### Prompt So what T/C did O=C(O)c1cccc([N+](=O)[O-])c1C(=O)c1ccccc1 get with P388 leukemia ip, CD2F1 mice, survival T/C?
### Response 95 % of control

### Prompt Lab note: need T/C for O=C(O)Cc1c[nH]c2cc(Cl)ccc12 on P388 leukemia ip, CD2F1 mice, survival T/C, anyone have it?
### Response 100 % of control

### Prompt Find T/C (P388 leukemia ip, CD2F1 mice, survival T/C) for the entry Nc1nc(Sc2ccccn2)ccc1[N+](=O)[O-]
### Response 91 % of control

### Prompt Look up T/C with P388 leukemia ip, CD2F1 mice, survival T/C for this compound: CC(C)(C)N=C(CCNC1CCCCC1)Nc1c(Cl)cccc1Cl
### Response 100 % of control

### Prompt API: value(readout= T/C, system= P388 leukemia ip, CD2F1 mice, survival T/C, query= O=CC=O )
### Response 116 % of control

### Prompt Record lookup: for P388 leukemia ip, CD2F1 mice, survival T/C, what T/C belongs to O=C(CNC(=O)NCc1ccco1)N/N=C/c1ccccc1O ?
### Response 89 % of control
